molecular target: Recombinant human JAK1 catalytic domain (Homo sapiens (Human)); assay: JAK1 kinase assay (Z'-LYTE Tyr 6 Peptide); type: biochemical; conditions: read-out: inhibition percentage (IR %)
Sequence (P23458 875-1153): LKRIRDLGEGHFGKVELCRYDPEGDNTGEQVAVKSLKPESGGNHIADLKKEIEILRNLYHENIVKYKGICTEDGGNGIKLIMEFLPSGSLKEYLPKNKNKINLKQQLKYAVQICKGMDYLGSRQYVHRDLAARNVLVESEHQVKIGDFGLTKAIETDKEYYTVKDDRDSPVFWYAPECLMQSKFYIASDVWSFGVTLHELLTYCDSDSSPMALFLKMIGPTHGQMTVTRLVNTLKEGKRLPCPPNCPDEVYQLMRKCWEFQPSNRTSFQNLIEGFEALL
property-name: inhibition at 0.3 µM

Identify the measured inhibition at 0.3 µM of C#Cc1ccc(N(C)[C@@H]2CCN(c3ncnc4[nH]ccc34)C2)nc1 [Compound 162] for Recombinant human JAK1 catalytic domain (Homo sapiens (Human)).
50 to 100%

Identify the measured inhibition at 0.3 µM of CN(c1ccc(NCc2ccc(F)cc2)cn1)[C@@H]1CCN(c2ncnc3[nH]ccc23)C1 [Compound 230] for Recombinant human JAK1 catalytic domain (Homo sapiens (Human)).
50 to 100%

Identify the measured inhibition at 0.3 µM of CN(c1ccc(C#N)c(Cl)c1)[C@@H]1CCN(c2ncnc3[nH]ccc23)C1 [Compound 116] for Recombinant human JAK1 catalytic domain (Homo sapiens (Human)).
20 to 50%

Identify the measured inhibition at 0.3 µM of CN(c1ccc(-c2ccncc2)cn1)[C@@H]1CCN(c2ncnc3[nH]ccc23)C1 [Compound 144] for Recombinant human JAK1 catalytic domain (Homo sapiens (Human)).
50 to 100%
